Values were extracted from ChEMBL document CHEMBL1133554.

Target: Phosphodiesterase 4 (Homo sapiens, UniProt P27815+Q08499+Q07343+Q08493)
Assay: Inhibition of phosphodiesterase type 4 isozyme (PDE4) from the U937 human cell line.
Format: cell-based
Conditions: u-937
Labelling field: enter True if recorded IC50 is less than 700 nM. Enter False if it equals or exceeds that cut-off.

mol.smiles: Nc1cc2c3c(c1)C(c1ccccc1)=N[C@@H](NC(=O)c1cc4ccccc4cn1)C(=O)N3CC2
assigned.label: True
//
mol.smiles: O=C(N[C@@H]1N=C(c2ccccc2)c2cccc3c2N(CC3)C1=O)c1cc2ccccc2cn1
assigned.label: False
//
mol.smiles: CC(=O)Nc1cc2c3c(c1)C(c1ccccc1)=N[C@@H](NC(=O)c1cc(Cl)c(N)c(Cl)c1)C(=O)N3CC2
assigned.label: True
//
mol.smiles: COc1ccccc1C(=O)N[C@@H]1N=C(c2ccccc2)c2cc(N)cc3c2N(CC3)C1=O
assigned.label: True
//
mol.smiles: CC(C)(C)OC(=O)Nc1cnccc1C(=O)N[C@@H]1N=C(c2ccccc2)c2cccc3c2N(CC3)C1=O
assigned.label: False

Then there is this compound:
State whether 700 nM exceeds IC50 recorded for O=C(N[C@@H]1N=C(c2ccccc2)c2cccc3c2N(CC3)C1=O)c1ccncc1 .
False

---

Target: Phosphodiesterase 4 (Homo sapiens, UniProt P27815+Q08499+Q07343+Q08493)
Assay: PDE4-related emetic activity in ferrets after intravenous administration at 10 mg/kg
Assay type: functional, organism-based
Set-up: dose 10 mg/kg
Conditions: Mustela putorius furo, target entry is the homologue from another species
readout.kind: R+V

mol.smiles: Cc1cc2c3c(c1)C(c1ccccc1)=N[C@@H](NC(=O)c1ccncc1)C(=O)N3CC2
target.under.test: Phosphodiesterase 4 (Homo sapiens, UniProt P27815+Q08499+Q07343+Q08493)
R+V: 0 90 min
--
mol.smiles: COc1ccc([C@]2(C#N)CC[C@@H](C(=O)O)CC2)cc1OC1CCCC1
target.under.test: Phosphodiesterase 4 (Homo sapiens, UniProt P27815+Q08499+Q07343+Q08493)
R+V: 59.5 90 min
--
mol.smiles: Nc1cc2c3c(c1)C(c1ccccc1)=N[C@@H](NC(=O)c1ccncc1N)C(=O)N3CC2
target.under.test: Phosphodiesterase 4 (Homo sapiens, UniProt P27815+Q08499+Q07343+Q08493)
R+V: 3.5 90 min

Go through the list and state R+V for each entry.
1. Nc1ccc(C(=O)N[C@@H]2N=C(c3ccccc3)c3cc(N)cc4c3N(CC4)C2=O)cc1
2. CC(C)(C)OC(=O)Nc1cnccc1C(=O)N[C@@H]1N=C(c2ccccc2)c2cc(N)cc3c2N(CC3)C1=O

0 90 min
0 90 min

---

Biological target: Phosphodiesterase 4 (Homo sapiens, UniProt P27815+Q08499+Q07343+Q08493)
Test: Inhibition of phosphodiesterase type 4 isozyme (PDE4) from the U937 human cell line.
Format: cell-based
Conditions: u-937
Labelling field: enter condition met if recorded IC50 is less than 700 nM. Enter condition not met if it equals or exceeds that cut-off.

Please review the entries below; each comes with its answer.
mol.smiles: Nc1cc2c3c(c1)C(c1ccccc1)=N[C@@H](NC(=O)c1ccncc1)C(=O)N3CC2
assigned.label: condition met
--
mol.smiles: Cc1cc2c3c(c1)C(c1ccccc1)=N[C@@H](NC(=O)c1cc(Cl)c(N)c(Cl)c1)C(=O)N3CC2
assigned.label: condition met
--
mol.smiles: COc1cc2c3c(c1)C(c1ccccc1)=N[C@@H](NC(=O)c1cnc4ccccc4c1)C(=O)N3CC2
assigned.label: condition not met
--
mol.smiles: Cc1cc2c3c(c1)C(c1ccccc1)=N[C@@H](NC(=O)c1c(Cl)cncc1Cl)C(=O)N3CC2
assigned.label: condition not met
--
mol.smiles: COc1ccccc1C(=O)N[C@@H]1N=C(c2ccccc2)c2cc(C)cc3c2N(CC3)C1=O
assigned.label: condition not met

State whether 700 nM exceeds IC50 recorded for Nc1cc2c3c(c1)C(c1ccccc1)=N[C@@H](NC(=O)c1c(Cl)cncc1Cl)C(=O)N3CC2 .
condition met

State whether 700 nM exceeds IC50 recorded for Nc1cnccc1C(=O)N[C@@H]1N=C(c2ccccc2)c2cccc3c2N(CC3)C1=O .
condition not met

State whether 700 nM exceeds IC50 recorded for Nc1cc2c3c(c1)C(c1ccccc1)=N[C@@H](NC(=O)c1cnc4ccccc4c1)C(=O)N3CC2 .
condition met

State whether 700 nM exceeds IC50 recorded for O=C(N[C@@H]1N=C(c2ccccc2)c2cccc3c2N(CC3)C1=O)c1c(Cl)cncc1Cl .
condition not met

State whether 700 nM exceeds IC50 recorded for Nc1cc2c3c(c1)C(c1ccccc1)=N[C@@H](NC(=O)c1cccnc1)C(=O)N3CC2 .
condition met

State whether 700 nM exceeds IC50 recorded for O=C(N[C@@H]1N=C(c2ccccc2)c2cc([N+](=O)[O-])cc3c2N(CC3)C1=O)c1cc2ccccc2cn1 .
condition not met

State whether 700 nM exceeds IC50 recorded for Cc1cc2nnc(C(=O)N[C@@H]3N=C(c4ccccc4)c4cc(N5CCCC5)cc5c4N(CC5)C3=O)c(C)n2n1 .
condition met

State whether 700 nM exceeds IC50 recorded for O=C(N[C@@H]1N=C(c2ccccc2)c2cccc3c2N(CC3)C1=O)c1cccnc1 .
condition not met

State whether 700 nM exceeds IC50 recorded for Cc1cc2nnc(C(=O)N[C@@H]3N=C(c4ccccc4)c4cc(N)cc5c4N(CC5)C3=O)c(C)n2n1 .
condition met

State whether 700 nM exceeds IC50 recorded for Nc1c(Cl)cc(C(=O)N[C@@H]2N=C(c3ccccc3)c3cc(N4CCCC4)cc4c3N(CC4)C2=O)cc1Cl .
condition met

State whether 700 nM exceeds IC50 recorded for O=C(N[C@@H]1N=C(c2ccccc2)c2cc(N3CCCC3)cc3c2N(CC3)C1=O)c1ccncc1 .
condition not met

State whether 700 nM exceeds IC50 recorded for O=C(N[C@@H]1N=C(c2ccccc2)c2cc([N+](=O)[O-])cc3c2N(CC3)C1=O)c1cccnc1 .
condition not met

---

Consider the following compounds; for each one, report its log10 of IC50.
Target: Phosphodiesterase 4 (Homo sapiens, UniProt P27815+Q08499+Q07343+Q08493)
Assay: Inhibition of phosphodiesterase type 4 isozyme (PDE4) from the U937 human cell line.
Assay type: cell-based
Conditions: u-937
Transform log10 | Measure IC50 | Unit nM

Record excerpt, results attached:
mol.smiles: COc1cc2c3c(c1)C(c1ccccc1)=N[C@@H](NC(=O)c1nnc4cc(C)nn4c1C)C(=O)N3CC2
log10 of IC50: 3.43
//
mol.smiles: CN(C)c1cc2c3c(c1)C(c1ccccc1)=N[C@@H](NC(=O)c1cc(Cl)c(N)c(Cl)c1)C(=O)N3CC2
log10 of IC50: 2.30
//
mol.smiles: Nc1cc2c3c(c1)C(c1ccccc1)=N[C@@H](NC(=O)c1ccncc1N)C(=O)N3CC2
log10 of IC50: 2.85
//
mol.smiles: Nc1cc2c3c(c1)C(c1ccccc1)=N[C@@H](NC(=O)c1cc(Cl)c(N)c(Cl)c1)C(=O)N3CC2
log10 of IC50: 1.60

Below: the item to evaluate.
Documented log10 of IC50 of COc1cc2c3c(c1)C(c1ccccc1)=N[C@@H](NC(=O)c1ccncc1)C(=O)N3CC2 : 3.64

---

Target: Phosphodiesterase 3 (Homo sapiens, UniProt Q14432+Q13370)
Experiment: Inhibition of phosphodiesterase 3 (PDE3) isolated from the dog aorta
Type: protein assay, Canis lupus familiaris
Conditions: target entry is the homologue from another species
Consider the following compounds; for each one, report its log10 IC50.
Transform log10 | Measure IC50 | Unit µM

Record excerpt, results attached:
mol.smiles: Cc1cc2nnc(C(=O)N[C@@H]3N=C(c4ccccc4)c4cc(N)cc5c4N(CC5)C3=O)c(C)n2n1
log10 IC50: 1.69
--
mol.smiles: CC(=O)Nc1cc2c3c(c1)C(c1ccccc1)=N[C@@H](NC(=O)c1cc(Cl)c(N)c(Cl)c1)C(=O)N3CC2
log10 IC50: 0.65
--
mol.smiles: COc1cc2c3c(c1)C(c1ccccc1)=N[C@@H](NC(=O)c1cnc4ccccc4c1)C(=O)N3CC2
log10 IC50: 1.29
--
mol.smiles: Cc1cc2c3c(c1)C(c1ccccc1)=N[C@@H](NC(=O)c1c(Cl)cncc1Cl)C(=O)N3CC2
log10 IC50: 1.29
--
mol.smiles: CN(C)c1cc2c3c(c1)C(c1ccccc1)=N[C@@H](NC(=O)c1cc(Cl)c(N)c(Cl)c1)C(=O)N3CC2
log10 IC50: 0.51
--
mol.smiles: Nc1cnccc1C(=O)N[C@@H]1N=C(c2ccccc2)c2cccc3c2N(CC3)C1=O
log10 IC50: 1.95
--
mol.smiles: Nc1c(Cl)cc(C(=O)N[C@@H]2N=C(c3ccccc3)c3cc(N4CCCC4)cc4c3N(CC4)C2=O)cc1Cl
log10 IC50: 1.03
--
mol.smiles: COc1cc2c3c(c1)C(c1ccccc1)=N[C@@H](NC(=O)c1nnc4cc(C)nn4c1C)C(=O)N3CC2
log10 IC50: 1.66

Below: the item to evaluate.
Documented log10 IC50 of CC(C)(C)OC(=O)Nc1cnccc1C(=O)N[C@@H]1N=C(c2ccccc2)c2cc(N)cc3c2N(CC3)C1=O : 1.76
